Data credit: patent US20230183237A1

# test system: hM5 (Homo sapiens, UniProt P08912)
# Construct: expressed in transfected cells
# Sequence (P08912 whole entry): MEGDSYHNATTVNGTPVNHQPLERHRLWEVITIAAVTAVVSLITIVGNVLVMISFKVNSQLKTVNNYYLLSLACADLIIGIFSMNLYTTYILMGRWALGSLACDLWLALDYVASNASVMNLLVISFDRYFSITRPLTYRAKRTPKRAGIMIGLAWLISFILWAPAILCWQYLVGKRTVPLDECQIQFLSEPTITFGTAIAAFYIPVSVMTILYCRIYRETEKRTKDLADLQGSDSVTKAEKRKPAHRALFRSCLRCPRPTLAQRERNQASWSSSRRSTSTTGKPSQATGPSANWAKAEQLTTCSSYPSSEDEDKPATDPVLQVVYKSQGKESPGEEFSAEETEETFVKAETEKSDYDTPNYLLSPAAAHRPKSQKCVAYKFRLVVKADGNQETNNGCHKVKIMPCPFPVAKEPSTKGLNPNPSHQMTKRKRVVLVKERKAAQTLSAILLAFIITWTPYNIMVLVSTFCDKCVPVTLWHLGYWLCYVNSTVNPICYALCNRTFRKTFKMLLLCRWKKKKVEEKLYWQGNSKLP
# assay procedure: Calcium mobilization concentration-response (IC50 vs EC80 acetylcholine), CHO hM5
# Assay type: cell-based
# condition parameters: CELL LINE hM5; calcium mobilization, EC80 acetylcholine addition; read-out: IC50
metric name: pIC50
On this scale, pIC50 is minus log10 of a concentration expressed in M (mol/L).

# count of solved cases: 2
smiles entry	pIC50
Cc1nn(C)c(Cl)c1S(=O)(=O)N1CCC(c2cn3ncnc3cc2C(F)(F)F)CC1	7.21
Cc1ncc(S(=O)(=O)N2CC=C(c3cc4ncnn4cc3Cl)CC2)n1C	6.18

Shifting focus to the compound that follows.
Lab note: need pIC50 for Cc1cn2ncnc2cc1C1CCN(S(=O)(=O)c2cnn(C)c2C)CC1 on hM5 (Homo sapiens, UniProt P08912), anyone have it?
6.56
